pKi: −log10 of the molar value.
Please find below pKi data on Coagulation factor X (Homo sapiens) compiled from the literature.
measureName: pKi

>>> print(df.to_string())
                                   compound                        assayedsystem  relationoperator  readoutnumber
0  NC(=O)c1ccc(/C=C2/CCCC/C(=C\c3ccc(C(N)=O)cc3)C2=O)cc1  Coagulation factor X (Homo sapiens)                 <           5.30
1  Cc1cc(C(=O)Nc2ccc(N3CCCCC3=O)cc2)n(-c2ccc3cc(Cl)ccc3c2)n1  Coagulation factor X (Homo sapiens)                 =           8.96
2  CC(C)c1cc(C(C)C)c(S(=O)(=O)NC(Cc2cccc(C(=N)N)c2)C(=O)N2CCN(C(=O)CN)CC2)c(C(C)C)c1 (racemic)  Coagulation factor X (Homo sapiens)                 =           4.98
3  CN(C)CCCN1C(=O)[C@@H]2[C@H](C1=O)[C@H](c1cc(-c3ccc(Cl)s3)on1)N1CCC[C@@H]21 (racemic)  Coagulation factor X (Homo sapiens)                 =           7.25

###

Please find below pKi data on Coagulation factor X (Homo sapiens) compiled from the literature.
pKi: −log10 of the molar value.
measureName: pKi

>>> print(df.to_string())
                                    molecule                        assayedsystem  measurename  relationoperator  readoutnumber
 0  NC(N)=NCc1ccccc1-c1ccc(C(=O)Nc2ccc(Cl)cc2C(=O)Nc2ccc(Cl)cn2)cc1  Coagulation factor X (Homo sapiens)          pKi                 =           9.52
 1  CC(C)[C@H](NC(=O)c1cccc(C(=N)N)c1)C(=O)NCC1CCC(CN)CC1 (stereo partly drawn)  Coagulation factor X (Homo sapiens)          pKi                 =           4.42
 2  Cc1c(F)c(Oc2cccc(N(C)C)c2)nc(Oc2cc(C(=N)N)ccc2O)c1F  Coagulation factor X (Homo sapiens)          pKi                 =           8.52
 3  COc1ccc(-n2nc(C(F)(F)F)cc2C(=O)Cc2ccc(N3CCCCC3=O)cc2)cc1  Coagulation factor X (Homo sapiens)          pKi                 =           9.00
 4  CC[C@H](C)[C@H](NS(=O)(=O)Cc1ccccc1C(=O)O)C(=O)N[C@@H](CCC(N)=O)C(=O)NCc1ccc(C(=N)N)cc1  Coagulation factor X (Homo sapiens)          pKi                 =           5.50
 5  C[C@]1(c2ccccc2)C[C@@H](c2cc(N)cc(-c3ccc(C(N)=O)cc3C(=O)O)c2)Nc2ccc(C(=N)N)cc21 (racemic)  Coagulation factor X (Homo sapiens)          pKi                 =           5.65
 6  CS(=O)(=O)c1ccccc1-c1ccc2c(c1)CCCN2C(=O)c1cc(C(F)(F)F)nn1-c1ccc2onc(N)c2c1  Coagulation factor X (Homo sapiens)          pKi                 =           5.70
 7  COc1ccc(-n2nc(Cn3cnnn3)c3c2C(=O)N(c2ccc(-c4ccccc4CN4CC[C@@H](O)C4)cc2)CC3)cc1  Coagulation factor X (Homo sapiens)          pKi                 =           9.07
 8  CC(C)N1CCC(NC(=O)c2cn(CC(=O)Nc3ccc(Cl)cc3)cn2)CC1  Coagulation factor X (Homo sapiens)          pKi                 =           4.69
 9  Cc1ncn(-c2cc(Cl)c(C(=O)NC[C@@H](c3cccc(F)c3)c3cc(=O)c4c(C)ccc(F)c4[nH]3)c(Cl)c2)n1  Coagulation factor X (Homo sapiens)          pKi                 <           4.54
10  COc1ccc(-n2nc(C(N)=O)c3c2C(=O)N(c2ccc(-c4ccccc4CN)cc2)CC3)cc1  Coagulation factor X (Homo sapiens)          pKi                 =           9.01
11  CS(=O)(=O)c1cccc(COc2cccc(NC(=O)C3CCN(c4ccncc4)CC3)c2)c1  Coagulation factor X (Homo sapiens)          pKi                 =           4.81
12  CN(C)C(=O)c1cccc(Oc2nc(Oc3cc(C(=N)N)ccc3O)nc3c2NC(=O)CN3)c1  Coagulation factor X (Homo sapiens)          pKi                 =           7.09
13  CC(=N)N1CCC(N(CCCC(=O)O)c2ccc3nc(C)n(Cc4ccc5ccc(C(=N)N)cc5c4)c3c2)CC1  Coagulation factor X (Homo sapiens)          pKi                 =           6.38
14  N=C(N)c1ccc(CNC(=O)[C@H]2CCCN2C(=O)[C@@H](CO)NS(=O)(=O)Cc2ccccc2)cc1  Coagulation factor X (Homo sapiens)          pKi                 =           5.70
15  CC(C)(C)CCCN1C(=O)[C@@H]2[C@H](C1=O)[C@H](c1cc(-c3ccc(Cl)s3)on1)N1CCC[C@@H]21 (racemic)  Coagulation factor X (Homo sapiens)          pKi                 =           6.26
16  COc1cccc2c1cc(C(=O)NCc1ccc(O)cc1)n2Cc1cccc(C(=N)N)c1  Coagulation factor X (Homo sapiens)          pKi                 =           6.74
17  CC(=N)N1CCC(Oc2ccc3c(c2)nc(CCC(=O)O)n3Cc2ccc3ccc(C(=N)N)cc3c2)CC1  Coagulation factor X (Homo sapiens)          pKi                 =           8.23
18  CCOC(=O)C1CCCN(c2ccc(N3C[C@H](CNC(=O)c4cnc(N)s4)OC3=O)cc2)C1.O=C(O)C(F)(F)F (stereo partly drawn)  Coagulation factor X (Homo sapiens)          pKi                 =           4.31
19  Nc1noc2ccc(-n3nc(C(F)(F)F)cc3C(=O)NC3CCN(c4ccccc4CN4CCCC4)CC3)cc12  Coagulation factor X (Homo sapiens)          pKi                 =           9.21
20  CC1(C(=O)Nc2ccc(-c3ccccc3S(N)(=O)=O)cc2)CC(c2cccc(C(=N)N)c2)=NO1 (stereo not drawn)  Coagulation factor X (Homo sapiens)          pKi                 =           8.14
21  N=C(N)c1ccc(CNC(=O)[C@@H]2Cc3ccc(cc3)NC(=O)CN3CCN(CC3)CC(=O)Nc3ccc(cc3)C[C@@H](NS(=O)(=O)c3ccccc3)C(=O)N2)cc1  Coagulation factor X (Homo sapiens)          pKi                 <           4.82
22  Cc1c(F)c(Oc2cccc(C(=N)N)c2)nc(Oc2cccc(-n3ccnc3)c2)c1F  Coagulation factor X (Homo sapiens)          pKi                 =           6.90
23  N=C(N)c1ccc(O)c(Oc2cc(C(=O)O)cc(Oc3cccc(-n4ccnc4)c3)n2)c1  Coagulation factor X (Homo sapiens)          pKi                 =           7.59
24  O=C(CN1CCN(S(=O)(=O)c2cc3ccc(Cl)cc3s2)CC1=O)NC1CCNCC1  Coagulation factor X (Homo sapiens)          pKi                 <           5.92
25  Cc1ncn(-c2cc(Cl)c(C(=O)NC[C@@H](c3cccc(F)c3)c3nc4c(C)cc(Cl)cc4[nH]3)c(Cl)c2)n1  Coagulation factor X (Homo sapiens)          pKi                 <           4.54
26  O=C1CN(S(=O)(=O)c2cc3ccc(Cl)cc3s2)CCN1Cc1cc2c[n+]([O-])ccc2[nH]1  Coagulation factor X (Homo sapiens)          pKi                 =           7.42
27  COc1ccc(-n2nc(C(F)(F)F)c3c2C(=O)N(c2ccc(-c4ccccc4CNC(C)C)cc2)CC3)cc1  Coagulation factor X (Homo sapiens)          pKi                 =           8.85
28  N=C(N)c1cccc(C[C@H](NS(=O)(=O)c2cccc(NC(=O)CCN)c2)C(=O)N2CCC(NC(=O)Nc3ccccc3)CC2)c1  Coagulation factor X (Homo sapiens)          pKi                 =           5.47
29  N=C(N)c1cccc(Oc2ccc(C(=O)O)c(Oc3cccc(C(=N)N)c3)n2)c1  Coagulation factor X (Homo sapiens)          pKi                 =           7.02
30  CC(C(=O)c1cc(C(F)(F)F)nn1-c1ccc2onc(N)c2c1)c1ccc(-c2ccccc2S(C)(=O)=O)cc1F (racemic)  Coagulation factor X (Homo sapiens)          pKi                 =           8.55
31  Cc1nn(-c2ccc3onc(N)c3c2)c2c(F)c(-c3ccc(N4CCCCC4=O)cc3F)ccc12  Coagulation factor X (Homo sapiens)          pKi                 =           7.59
32  O=C(CNC(=O)[C@@H](CCc1cccc[n+]1[O-])NS(=O)(=O)Cc1ccccc1)NCc1cccc(Cl)c1  Coagulation factor X (Homo sapiens)          pKi                 =           8.48
